Cell Viability (%) mean for assorted compounds
# Test system: RAW264.7 cells
# Method Notes: Cell viability (MTT) of RAW264.7 cells
# Type: cell-based
# Protocol Conditions: Test Con. 10 μM; MTT; RAW264.7 cells; percentage of viable LPS-stimulated cells
Answer with a number only, understood to be in %.

# Compound, Experimental Target, Cell Viability (%) mean
measured = [
    ("C=CC(=O)N(c1ccc(F)cc1Cl)S(=O)(=O)c1c(C)noc1C [Compound 34]", "RAW264.7 cells", 53.9),
]

Here is the next item to consider.
// C=CC(=O)N(c1ccc(F)cc1Cl)S(=O)(=O)N1CCC[C@H]1C(=O)OC [Compound 49] : Cell Viability (%) mean value = 81.6

###

# System: HEK293 cells
# Method Notes: Cell viability (MTT) of the TLR4-expressing HEK293 cells
# Assay type: cell-based
# Protocol Conditions: Test Con. 10 μM, percentage of viable LPS-stimulated cells
Labelling: Cell Viability (%) mean reported below 90% becomes true (1); at or above becomes false (0).

Some solved cases for reference:
# Smiles, Qualitative Label
records = [
    ("C=CC(=O)N(c1ccc(F)cc1Cl)S(=O)(=O)c1ccccc1S(C)(=O)=O", "true (1)"),
    ("C=CC(=O)N(c1ccc(F)cc1Cl)S(=O)(=O)N1CCC[C@H]1C(=O)OC", "false (0)"),
]

Consider now this further compound.
Please determine if C=CC(=O)N(c1ccc(F)cc1Cl)S(=O)(=O)N1CCCC1 is below 90% in terms of Cell Viability (%) mean.
true (1)

###

# System: HEK293 cells
# Method Notes: Cell viability (MTT) of the TLR4-expressing HEK293 cells
# Type: cell-based
# Protocol Conditions: Test Con. 10 μM, percentage of viable LPS-stimulated cells
Could you please mark Condition met for values of Cell Viability (%) mean below 90% and Condition not met for values at or above it?

For orientation, consider the following solved cases.
# Compound, Qualitative Label
measured = [
    ("C=CC(=O)N1CCCC[C@H]1C(=O)N(C)c1ccc(F)cc1Cl [Compound 57]", "Condition not met"),
    ("C=CC(=O)N1CCC[C@@H]1C(=O)Nc1ccc(F)cc1Cl [Compound 65]", "Condition not met"),
    ("C=CC(=O)N(c1ccc(F)cc1Cl)S(=O)(=O)c1ccccc1[N+](=O)[O-] [Compound 22]", "Condition not met"),
    ("C=CC(=O)N1CCCc2cccc(S(=O)(=O)Nc3ccc(F)cc3Cl)c21 [Compound 12]", "Condition met"),
]

Quick check: Cell Viability (%) mean of C=CC(=O)N(c1ccc(F)cc1Cl)S(=O)(=O)c1ccccc1OC(F)(F)F [Compound 26] under 90%?
Condition met

API: query returns whether the compound falls strictly under 90% in Cell Viability (%) mean. Query: C=CC(=O)N(c1ccc(F)cc1Cl)S(=O)(=O)c1ccc(F)cc1Cl [Compound 30]
Condition not met

Take the compound C=CC(=O)N1CCC[C@H]1C(=O)Nc1ccc(F)cc1Cl [Compound 61] and say whether its Cell Viability (%) mean is less than 90%.
Condition not met

In plain terms, does C=CC(=O)N(C1CC1)S(=O)(=O)c1ccc(F)cc1Cl [Compound 40] come in under 90% for Cell Viability (%) mean?
Condition met

###

# Experimental Target: Toll-like receptor 4 (TLR4) (Homo sapiens, UniProt O00206)
# Construct: expressed in transfected cells; host or cells: HEK293 cells engineered to express TLR4
# Sequence (O00206 24-839, species assumed): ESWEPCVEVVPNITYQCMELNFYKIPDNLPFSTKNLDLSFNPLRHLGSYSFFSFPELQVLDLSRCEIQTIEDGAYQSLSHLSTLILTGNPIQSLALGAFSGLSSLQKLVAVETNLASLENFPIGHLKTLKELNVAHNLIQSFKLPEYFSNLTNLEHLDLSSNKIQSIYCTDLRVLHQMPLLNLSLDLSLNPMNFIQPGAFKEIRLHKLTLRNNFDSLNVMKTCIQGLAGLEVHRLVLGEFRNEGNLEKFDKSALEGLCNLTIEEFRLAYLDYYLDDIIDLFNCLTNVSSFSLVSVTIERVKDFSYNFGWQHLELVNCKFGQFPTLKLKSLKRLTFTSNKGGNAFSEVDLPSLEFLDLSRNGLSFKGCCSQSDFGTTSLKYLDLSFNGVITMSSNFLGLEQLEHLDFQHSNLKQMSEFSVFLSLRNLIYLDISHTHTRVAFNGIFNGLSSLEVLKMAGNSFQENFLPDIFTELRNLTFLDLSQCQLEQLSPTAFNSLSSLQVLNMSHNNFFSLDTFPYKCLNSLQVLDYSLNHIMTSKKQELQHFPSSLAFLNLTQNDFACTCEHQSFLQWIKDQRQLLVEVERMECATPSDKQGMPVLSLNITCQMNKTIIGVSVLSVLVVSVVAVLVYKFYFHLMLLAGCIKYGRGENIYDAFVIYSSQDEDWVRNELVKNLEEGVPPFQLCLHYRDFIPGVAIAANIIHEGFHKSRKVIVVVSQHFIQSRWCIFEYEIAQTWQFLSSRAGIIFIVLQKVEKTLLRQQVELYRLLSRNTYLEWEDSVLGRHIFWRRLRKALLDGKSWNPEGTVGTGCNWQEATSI
# Sequence (Q9Y6Y9 17-160 partner limits assumed, species assumed): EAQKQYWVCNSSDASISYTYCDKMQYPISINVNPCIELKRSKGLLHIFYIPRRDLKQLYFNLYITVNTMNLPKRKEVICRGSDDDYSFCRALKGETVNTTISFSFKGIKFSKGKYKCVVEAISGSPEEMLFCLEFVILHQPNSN
# Method Notes: TLR4 activity: NF-κB-inducible SEAP reporter in LPS-stimulated TLR4-expressing HEK293 cells
# Format: cell-based
# Protocol Conditions: Test Con. 10 μM; LPS 10 ng/ml; 16-24 hours; HEK293 cells expressing TLR4; read-out: TLR-4 inhibition (%) mean
Recorded inhibition at 10 µM, one value per entry.
Use % as the unit, but write only the number.

// worked examples, inhibition at 10 µM included
# Compound, Experimental Target, Readout Number
measured = [
    ("C=CC(=O)N1CCC[C@H]1C(=O)Nc1ccc(F)cc1Cl [Compound 61]", "Toll-like receptor 4 (TLR4) (Homo sapiens, UniProt O00206)", 3.7),
    ("C=CC(=O)N1CCCC[C@H]1C(=O)N(C)c1ccc(F)cc1Cl [Compound 57]", "Toll-like receptor 4 (TLR4) (Homo sapiens, UniProt O00206)", 17.5),
    ("C=CC(=O)N(c1ccc(F)cc1Cl)S(=O)(=O)c1ccccc1C(=O)OC [Compound 24]", "Toll-like receptor 4 (TLR4) (Homo sapiens, UniProt O00206)", 100),
    ("C=CC(=O)N(c1ccc(F)cc1Cl)S(=O)(=O)c1ccc(F)cc1Cl [Compound 30]", "Toll-like receptor 4 (TLR4) (Homo sapiens, UniProt O00206)", 94.8),
    ("C=CC(=O)N(c1ccc(F)cc1Cl)S(=O)(=O)c1ccccc1S(C)(=O)=O [Compound 32]", "Toll-like receptor 4 (TLR4) (Homo sapiens, UniProt O00206)", 100),
    ("C=CC(=O)N(c1ccc(F)cc1Cl)S(=O)(=O)N1CCC[C@H]1C(=O)OC [Compound 49]", "Toll-like receptor 4 (TLR4) (Homo sapiens, UniProt O00206)", 76.2),
    ("C=CC(=O)N1CCCc2cccc(S(=O)(=O)Nc3ccc(F)cc3F)c21 [Compound 15]", "Toll-like receptor 4 (TLR4) (Homo sapiens, UniProt O00206)", 100),
    ("C=CC(=O)N(c1ccc(F)cc1Cl)S(=O)(=O)N1CCCCC1C(=O)OC (centres unmarked) [Compound 52]", "Toll-like receptor 4 (TLR4) (Homo sapiens, UniProt O00206)", 100),
    ("C=C(C)C(=O)N(c1ccc(F)cc1Cl)S(=O)(=O)c1ccccc1 [Compound 20]", "Toll-like receptor 4 (TLR4) (Homo sapiens, UniProt O00206)", 60.1),
    ("C=CC(=O)N1CCCc2cccc(S(=O)(=O)Nc3ccc(F)cc3Cl)c21 [Compound 12]", "Toll-like receptor 4 (TLR4) (Homo sapiens, UniProt O00206)", 98.9),
]

The recorded inhibition at 10 µM with Toll-like receptor 4 (TLR4) (Homo sapiens, UniProt O00206) for C=CC(=O)N(c1ccc(F)cc1Cl)S(=O)(=O)N1CCCC1 [Compound 50] was 76

Tested system Toll-like receptor 4 (TLR4) (Homo sapiens, UniProt O00206); inhibition at 10 µM recorded for C=CC(=O)c1ccccc1S(=O)(=O)N(C)c1ccccc1 [Compound 70] was 100

inhibition at 10 µM value, target or system Toll-like receptor 4 (TLR4) (Homo sapiens, UniProt O00206), for C=CC(=O)N(c1ccc(F)cc1Cl)S(=O)(=O)c1c(C)oc(C)c1C(=O)OC [Compound 42] : 100

Tested system Toll-like receptor 4 (TLR4) (Homo sapiens, UniProt O00206); inhibition at 10 µM recorded for C=CC(=O)N(C1CC1)S(=O)(=O)c1ccc(F)cc1Cl [Compound 40] was 100

I looked up C=CC(=O)N(c1ccc(F)cc1Cl)S(=O)(=O)c1ccccc1[N+](=O)[O-] [Compound 22] and its inhibition at 10 µM for Toll-like receptor 4 (TLR4) (Homo sapiens, UniProt O00206) was 63

// compound C=CC(=O)N(c1ccc(F)cc1Cl)S(=O)(=O)c1ccccc1OC(F)(F)F [Compound 26] , assay Toll-like receptor 4 (TLR4) (Homo sapiens, UniProt O00206), inhibition at 10 µM value: 10.7

I looked up C=CC(=O)N(c1ccc(F)cc1Cl)S(=O)(=O)c1ccccc1 [Compound 19] and its inhibition at 10 µM for Toll-like receptor 4 (TLR4) (Homo sapiens, UniProt O00206) was 100

###

Recorded Cell Viability (%) mean, one value per entry.
# Tested on: RAW264.7 cells
# Method Notes: Cell viability (MTT) of RAW264.7 cells
# Format: cell-based
# Protocol Conditions: Test Con. 10 μM; MTT; RAW264.7 cells; percentage of viable LPS-stimulated cells
Your answer should be a plain number; it is taken to be in %.

Would you please look over these solved cases?
# Smiles, Experimental Target, Unit Of Measurement, Readout Number
rows = [
    ("C=CC(=O)Nc1ccccc1S(=O)(=O)Nc1ccc(F)cc1Cl", "RAW264.7 cells", "%", 96.1),
    ("C=CC(=O)N(c1ccc(F)cc1Cl)S(=O)(=O)c1c(C)oc(C)c1C(=O)OC", "RAW264.7 cells", "%", 27.8),
    ("C=C(C)C(=O)Nc1ccccc1S(=O)(=O)Nc1ccc(F)cc1Cl", "RAW264.7 cells", "%", 98.3),
    ("C=CC(=O)N1CCCc2cccc(S(=O)(=O)Nc3ccc(F)cc3Cl)c21", "RAW264.7 cells", "%", 25.5),
]

I looked up C=CC(=O)N(c1ccc(F)cc1Cl)S(=O)(=O)N1CCOC1=O and its Cell Viability (%) mean for RAW264.7 cells was 48.0

The recorded Cell Viability (%) mean with RAW264.7 cells for C=CC(=O)N(c1ccc(F)cc1Cl)S(=O)(=O)c1ccccc1C(=O)OC was 54.5

The reported RAW264.7 cells Cell Viability (%) mean of C=CC(=O)N1CCCc2cccc(S(=O)(=O)Nc3ccc(F)cc3F)c21 is 52.4

Observed Cell Viability (%) mean on RAW264.7 cells, entry C=CC(=O)N(c1ccc(F)cc1Cl)S(=O)(=O)c1ccccc1 , equals 38.1
